Cited source: patent US20140031388A1

# Tested on: PC-3 cells
# Assay notes: MTT viability assay, PC-3
# Assay type: cell-based
# Particulars: Homo sapiens, PC-3, FBS 5%; read-out: IC50 (μM) PC-3
Measure name: IC50 (µM)
Numbers only, in µM.

Q: Entry Cc1c(O)cc2c(c1C)OC(C)(CCCC(C)C)CC2=O (stereo not shown) needs its IC50 filled in; supply it.
Result: 14

----------
# Test system: LNCaP cells
# Assay notes: MTT viability assay, LNCaP
# Format: cell-based
# Particulars: Homo sapiens, 1% FBS-containing or serum-free RPMI 1640 medium for 24 h
For each entry below, report its IC50 value.
One number for each entry, in µM.

Field: example entries. Status: answers known.
Q: Read the entry COc1ccc2c(c1)CCC(C)(CCCC(C)C)O2 (racemic) and write its reported IC50.
Result: 40

Q: Report measured IC50; entry is CC(C)CCCC1(C)CCc2cc(O)ccc2O1 (racemic)
Result: 40

Q: Report measured IC50; entry is CC(C)CCCC1(C)CC(=O)c2cc(O)ccc2O1 (racemic)
Result: 30

Query compound follows.
Q: Specify reported IC50 for the compound shown: Cc1c(C)c2c(c(C)c1O)CC[C@@](C)(CCCC(C)C)O2
Result: 20
